I'd appreciate it if you could supply Ligand-pharmacophore element distance, pharmacophore element O1 values for the items below.
TGT: MASP-2 CCP2-SP (Homo sapiens (Human))
ASSAY_DETAILS: MASP-2 co-crystallization, X-ray crystallography and structure analysis (H-bonds, van der Waals contacts)
STUDY_CONDITIONS: Table A4-2; element O1
Source text: This example illustrates the preparation of recombinant MASP-2 protein, based on UniProt O00187, human mannan-binding lectin serine protease 2. Expression constructs for human MASP-2 CCP2-SP and CCP2-SP-6HIS were generated for recombinant expression in E. coli cells. […]
// keep it numeric: no unit symbol after the value

Briefly, Ligand-pharmacophore element distance, pharmacophore element O1 measured for "N=C(N)c1ccc(CNC(=O)[C@@H]2CCN2C(=O)[C@H](NCC(=O)O)C2Cc3ccccc3C2)cc1" : 0.39

Briefly, Ligand-pharmacophore element distance, pharmacophore element O1 measured for C[C@H](NC(=O)[C@H](N)CCCc1ccccc1)C(=O)NCc1ccc(C(=N)N)cc1.Cl.Cl [1042_2] : 3.1

Briefly, Ligand-pharmacophore element distance, pharmacophore element O1 measured for "O=c1oc(-c2ccccc2[N+](=O)[O-])nc2ccccc12" : 3.89

Briefly, Ligand-pharmacophore element distance, pharmacophore element O1 measured for C[C@H](NC(=O)[C@H](N)CCCc1ccccc1)C(=O)NCc1ccc(C(=N)N)cc1.Cl.Cl [1042_1] : 2.71

Briefly, Ligand-pharmacophore element distance, pharmacophore element O1 measured for "N=C(N)c1ccc(CNC(=O)[C@@H]2CCN2C(=O)[C@H]2Cc3ccccc3CN2)cc1" : 0.39

Briefly, Ligand-pharmacophore element distance, pharmacophore element O1 measured for "C[C@H](NC(=O)[C@H](N)CCc1ccccc1)C(=O)NCc1ccc(C(=N)N)cc1" : 0.4

====

TGT: MASP-2 CCP2-SP (Homo sapiens (Human), UniProt O00187)
Sequence (O00187 445-686): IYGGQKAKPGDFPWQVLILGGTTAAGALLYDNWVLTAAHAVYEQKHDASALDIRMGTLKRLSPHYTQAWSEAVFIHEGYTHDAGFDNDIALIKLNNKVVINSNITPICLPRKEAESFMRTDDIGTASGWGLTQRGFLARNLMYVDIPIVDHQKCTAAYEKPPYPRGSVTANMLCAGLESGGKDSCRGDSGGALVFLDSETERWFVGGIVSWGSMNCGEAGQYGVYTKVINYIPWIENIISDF
Sequence (O00187 364-432 partner): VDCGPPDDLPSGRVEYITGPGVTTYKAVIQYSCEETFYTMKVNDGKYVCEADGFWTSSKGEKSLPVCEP
ASSAY_DETAILS: MASP-2 co-crystallization, X-ray crystallography and structure analysis (H-bonds, van der Waals contacts)
STUDY_CONDITIONS: Table A6-1 pharmacophore angle
From the text: This example illustrates the preparation of recombinant MASP-2 protein, based on UniProt O00187, human mannan-binding lectin serine protease 2. Expression constructs for human MASP-2 CCP2-SP and CCP2-SP-6HIS were generated for recombinant expression in E. coli cells. […]
MEASURED_PARAMETER: a(O1, CA1, O4)
// keep it numeric: no unit symbol after the value

Briefly, a(O1, CA1, O4) measured for C[C@H](NC(=O)[C@H]1C[C@@H](c2ccccc2)CCN1)C(=O)NCc1cc(Cl)ccc1O.Cl [1078_3] : 67.41

Briefly, a(O1, CA1, O4) measured for C[C@H](NC(=O)[C@H]1C[C@@H](c2ccccc2)CCN1)C(=O)NCc1cc(Cl)ccc1O.Cl [1078_8] : 73.28

Briefly, a(O1, CA1, O4) measured for C[C@H](NC(=O)[C@H]1C[C@@H](c2ccccc2)CCN1)C(=O)NCc1cc(Cl)ccc1O.Cl [1078_9] : 66.67

Briefly, a(O1, CA1, O4) measured for C[C@H](NC(=O)[C@H]1C[C@H](Cc2ccccc2)CN1)C(=O)NCc1cnc2[nH]cc(Cl)c2c1 [compound 1334] : 68.25

Briefly, a(O1, CA1, O4) measured for C[C@H](NC(=O)[C@H]1C[C@@H](c2ccccc2)CCN1)C(=O)NCc1cc(Cl)ccc1O.Cl [1078_1] : 68.03

Briefly, a(O1, CA1, O4) measured for C[C@H](NC(=O)[C@H]1C[C@@H](c2ccccc2)CCN1)C(=O)NCc1cc(Cl)ccc1O.Cl [1078_14] : 70.42

Briefly, a(O1, CA1, O4) measured for C[C@H](NC(=O)[C@H]1C[C@@H](c2ccccc2)CCN1)C(=O)NCc1cc(Cl)ccc1O.Cl [1078_11] : 59.87

Briefly, a(O1, CA1, O4) measured for C[C@H](NC(=O)[C@H]1C[C@@H](c2ccccc2)CCN1)C(=O)NCc1cnc2[nH]cc(Cl)c2c1 [compound 1433] : 65.77

Briefly, a(O1, CA1, O4) measured for C[C@H](NC(=O)[C@H]1C[C@@H](c2ccccc2)CCN1)C(=O)NCc1cc(Cl)ccc1O.Cl [1078_13] : 65.06

Briefly, a(O1, CA1, O4) measured for C[C@H](NC(=O)[C@H]1C[C@@H](c2ccccc2)CCN1)C(=O)NCc1cc(Cl)ccc1O.Cl [1078_5] : 55.67

Briefly, a(O1, CA1, O4) measured for C[C@H](NC(=O)[C@H]1C[C@@H](c2ccccc2)CCN1)C(=O)NCc1cc(Cl)ccc1O.Cl [1078_15] : 65.89

Briefly, a(O1, CA1, O4) measured for C[C@H](NC(=O)[C@H]1C[C@@H](c2ccccc2)CCN1)C(=O)NCc1cc(Cl)ccc1O.Cl [1078_16] : 67.40

Briefly, a(O1, CA1, O4) measured for C[C@H](NC(=O)[C@H]1C[C@@H](c2ccccc2)CCN1)C(=O)NCc1cc(Cl)ccc1O.Cl [1078_6] : 67.49

Briefly, a(O1, CA1, O4) measured for C[C@H](NC(=O)[C@H]1C[C@@H](c2ccccc2)CCN1)C(=O)NCc1cc(Cl)ccc1O.Cl [1078_2] : 65.74

Briefly, a(O1, CA1, O4) measured for CC(NC(=O)C1CC(Cc2ccccc2)CN1)C(=O)NCc1cnc2c(c1)c(Cl)cn2C.Cl.Cl (mixture of isomers) [1450_A] : 68.80

Briefly, a(O1, CA1, O4) measured for C[C@H](NC(=O)[C@H]1C[C@@H](c2ccccc2)CCN1)C(=O)NCc1cc(Cl)ccc1O.Cl [1078_4] : 65.56

Briefly, a(O1, CA1, O4) measured for CC(NC(=O)C1CC(Cc2ccccc2)CN1)C(=O)NCc1cnc2c(c1)c(Cl)cn2C.Cl.Cl (stereo not drawn) [1450_B] : 66.73

Briefly, a(O1, CA1, O4) measured for C[C@H](NC(=O)[C@H]1C[C@@H](c2ccccc2)CCN1)C(=O)NCc1cc(Cl)ccc1O.Cl [1078_7] : 67.29

Briefly, a(O1, CA1, O4) measured for C[C@H](NC(=O)[C@H]1C[C@@H](c2ccccc2)CCN1)C(=O)NCc1cc(Cl)ccc1O.Cl [1078_10] : 71.55

Briefly, a(O1, CA1, O4) measured for Cc1cc(Cl)cc(CNC(=O)[C@H](C)NC(=O)[C@H]2C[C@H](Cc3ccccc3)CN2)c1O [compound 1307] : 66.49

Briefly, a(O1, CA1, O4) measured for C[C@H](NC(=O)[C@H]1C[C@@H](c2ccccc2)CCN1)C(=O)NCc1cc(Cl)ccc1O.Cl [1078_12] : 67.44
